assay: yeast display, Sf9 membrane polyspecificity reagent, FACS + sequencing; frameworks hold sequencing errors

>  <polymerSequence>
QVQLVESGGGLVQAGGSLRLSCAASGRIFVKNAMGWYRQAPGKERELVAAISSGSSTNYADSVKGRFTISRDNAKNTVYLQMNSLKPEDTAVYYCAARQAQWDDYWGQGTQVTVSS

>  <polyreactivity (PSR sort gate)>
high polyreactivity

$$$$
>  <polymerSequence>
QVQLVESGGGLVQAGGSLRLSCAASGSIFYRNAMGWYRQAPGKERELVAAITSSGGSTYYADSVKGRFTISRDNAKYTVYFQMNSLKPEDTAVYYCNSVVTKFAKCRFLYYYWGQGTQVTVSS

>  <polyreactivity (PSR sort gate)>
high polyreactivity

$$$$
